B1: CSNK1G1 (parent)
chain: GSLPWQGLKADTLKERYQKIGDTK

variants of: B1; experiment: protein stability index of a GFP-peptide fusion (GPS, HEK-293T) (PSI 1-6); higher = more stable; conditions: c terminus: a fixed tail appended;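 note: lentivirally expressed fusions sorted by FACS into six bins by GFP to DsRed ratio, PSI derived from sequencing read proportions per bin multiplied by bin number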
In this section, each of the variants is paired with its reported protein stability index.
Just the number, please, no unit attached.

Lab note: measured protein stability index of `GSLPWQGLKADTLKCRYQKIGDTK` was 3.37
